subject of test: Stimulator of interferon genes protein (Homo sapiens, UniProt Q86WV6)
Sequence (Q86WV6 whole entry): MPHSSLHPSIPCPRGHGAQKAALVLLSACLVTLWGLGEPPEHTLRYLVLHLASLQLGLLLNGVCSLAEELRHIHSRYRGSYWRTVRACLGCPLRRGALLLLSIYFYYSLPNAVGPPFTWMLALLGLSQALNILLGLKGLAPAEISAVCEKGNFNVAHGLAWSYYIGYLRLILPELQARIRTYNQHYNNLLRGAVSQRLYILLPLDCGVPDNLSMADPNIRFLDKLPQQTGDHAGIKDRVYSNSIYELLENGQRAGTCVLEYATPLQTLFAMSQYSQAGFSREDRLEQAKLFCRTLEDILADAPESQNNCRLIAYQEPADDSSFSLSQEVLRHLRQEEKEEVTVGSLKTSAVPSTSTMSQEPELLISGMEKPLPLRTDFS
experiment notes: Agonist activity at wild type human STING in HEK cells
Format: cell-based
parameter measured: pEC50
Field pEC50 (float): negative decimal logarithm of the concentration in molar.

// recorded pEC50 for `O=C(NCc1ccco1)c1ccc2c(c1)N(Cc1c(F)cccc1Cl)C(=O)CS2` : 5.60

###

Measured fold change (FC) accompanies every entry in the list below.
subject of test: Stimulator of interferon genes protein (Homo sapiens, UniProt Q86WV6)
experiment notes: Agonist activity at STING in human THP1-Dual cells assessed as fold change in ISG activation at 10 uM incubated for 24 hrs by Quanti-luc reagent based assay relative to control
Assay type: cell-based
experimental context: filed as agonist
Respond numerically, and do not add a unit to the figure.

The reported Stimulator of interferon genes protein (Homo sapiens, UniProt Q86WV6) fold change (FC) of `CCn1nc(C)cc1C(=O)Nc1nc2cc(C(N)=O)sc2n1CCCCn1c(NC(=O)c2cc(C)nn2CC)nc2cc(C(N)=O)cc(OCCCN3CCOCC3)c21` is 8.42

GET /values?item= `CCn1nc(C)cc1C(=O)Nc1nc2cc(NC(C)=O)ccc2n1CCCCn1c(NC(=O)c2cc(C)nn2CC)nc2cc(C(N)=O)cc(OCCCN3CCOCC3)c21` &system= Stimulator of interferon genes protein (Homo sapiens, UniProt Q86WV6) returns fold change (FC): 2.32

Case `CCn1nc(C)cc1C(=O)Nc1nc2cc(C(N)=O)sc2n1C/C=C/Cn1c(NC(=O)c2cc(C)nn2CC)nc2cc(C(N)=O)cc(OC(C)C)c21` , Stimulator of interferon genes protein (Homo sapiens, UniProt Q86WV6), fold change (FC) recorded as 60.4

Stimulator of interferon genes protein (Homo sapiens, UniProt Q86WV6) fold change (FC) of `CCn1nc(C)cc1C(=O)Nc1nc2cc(C(N)=O)sc2n1C/C=C/Cn1c(NC(=O)c2cc(C)nn2CC)nc2cc(C(N)=O)cc(OCC3CC3)c21` is 141

Form: item `CCn1nc(C)cc1C(=O)Nc1nc2cc(NC(=O)CN)ccc2n1CCCCn1c(NC(=O)c2cc(C)nn2CC)nc2cc(C(N)=O)cc(OCCCN3CCOCC3)c21` ; test system Stimulator of interferon genes protein (Homo sapiens, UniProt Q86WV6); fold change (FC): 11

Summary line: `CCn1nc(C)cc1C(=O)Nc1nc2sc(C(N)=O)cc2n1CCCCn1c(NC(=O)c2cc(C)nn2CC)nc2cc(C(N)=O)cc(OCCCN3CCOCC3)c21` , Stimulator of interferon genes protein (Homo sapiens, UniProt Q86WV6), reported fold change (FC) = 1.15

Per the reported Stimulator of interferon genes protein (Homo sapiens, UniProt Q86WV6) data, `CCn1nc(C)cc1C(=O)Nc1nc2cc(C(N)=O)sc2n1C/C=C/Cn1c(NC(=O)c2cc(C)nn2CC)nc2cc(C(N)=O)cc(O[C@H]3CCOC3)c21` has fold change (FC) of 80.3

Query `CCn1nc(C)cc1C(=O)Nc1nc2cc(C(N)=O)sc2n1C/C=C/Cn1c(NC(=O)c2cc(C)nn2CC)nc2cc(C(N)=O)cc(OC3COC3)c21` on Stimulator of interferon genes protein (Homo sapiens, UniProt Q86WV6); fold change (FC) returned: 49.2

The compound `CCn1nc(C)cc1C(=O)Nc1nc2cc(C(N)=O)sc2n1CCCCn1c(NC(=O)c2cc(C)nn2CC)nc2cc(C(N)=O)sc21` , when measured on Stimulator of interferon genes protein (Homo sapiens, UniProt Q86WV6), yielded fold change (FC) of 1.15

For the compound `CCn1nc(C)cc1C(=O)Nc1nc2cc(C(N)=O)sc2n1C/C=C/Cn1c(NC(=O)c2cc(C)nn2CC)nc2cc(C(N)=O)cc(OCCCN3CCOCC3)c21` , the measured fold change (FC) on Stimulator of interferon genes protein (Homo sapiens, UniProt Q86WV6) was 145
